- Tested on: monoclonal antibody (DAEFRH-peptide-specific)
- experimental.protocol: Inhibition assay (ELISA): mimotope peptides compete with plate-bound original epitope DAEFRH for recognition by the monoclonal antibody
- Format: binding, Mice
- run.conditions: competition ELISA, plate-bound DAEFRH-C-BSA; text to FIGS. 2-9
measured.parameter: inhibition of binding of the monoclonal antibody to the original epitope

Below are worked cases with known answers.
substance	obs.value
DIGWRG (DIGWRGC) [Peptide 3011]	not inhibitory
WHWSWR (WHWSWRC) [Peptide 4004]	not able to inhibit
YREFFI (YREFFIC) [Peptide 3003]	not able to inhibit
DISFRG (DISFRGC) [Peptide 3010]	not inhibitory
DNEFRSP [Peptide 4012]	moderately inhibit
SWFRNP [Peptide 4019]	not inhibitory

Ask: Quick one: inhibition of binding of the monoclonal antibody to the original epitope for VPTSALA [Peptide 4037] ?
Reply: not inhibitory

Ask: // next record GAEFRFT [Peptide 4014]
Reply: moderately inhibit

Ask: Request: ATYAYWN [Peptide 4038]
Reply: not inhibitory

Ask: Do the same for GSEFRDY [Peptide 4013] please
Reply: moderately inhibit

###

- Test system: monoclonal antibody (DAEFRH-peptide-specific)
- experimental.protocol: Inhibition assay (ELISA): mimotope peptides compete with plate-bound original epitope DAEFRH for recognition by the monoclonal antibody
- Format: binding, Mice
- run.conditions: summary Tables 1 and 2 (Examples 2, 3)
measured.parameter: Inhibitory capacity of mimotopes

Consider the following illustrative entries.
substance	system.under.test	obs.value
KKELRI (KKELRIC) [Peptide 1234]	monoclonal antibody (DAEFRH-peptide-specific)	none
WHWSWR (WHWSWRC) [Peptide 4004]	monoclonal antibody (DAEFRH-peptide-specific)	none
GREFRN (GREFRNC) [Peptide 4003]	monoclonal antibody (DAEFRH-peptide-specific)	weak
YREFRI (YREFRIC) [Peptide 3004]	monoclonal antibody (DAEFRH-peptide-specific)	weak
DISFRG (DISFRGC) [Peptide 3010]	monoclonal antibody (DAEFRH-peptide-specific)	none

Ask: State its Inhibitory capacity of mimotopes on monoclonal antibody (DAEFRH-peptide-specific): YREFFI (YREFFIC) [Peptide 3003]
Reply: none

Ask: Would you kindly repeat that for DIGWRG (DIGWRGC) [Peptide 3011] ?
Reply: none

###

- Tested on: monoclonal antibody MV-003
- experimental.protocol: In vitro binding assay (ELISA), BSA-coupled peptides, parental antibody MV-003
- Set-up: species or system BalbC mice
- run.conditions: Table 1A; peptide-BSA on plate, compared to original epitope
- Description: Peptides derived from Phage Display as well as variants thereof were coupled to BSA and bound to ELISA plates (1 μM; as indicated in the respective figures) and subsequently incubated with the monoclonal antibody that was used for the screening procedure to analyse binding capacity of identified peptides. Legend to Table 1A: the binding capacity is coded by the following binding code: 1:X describes the dilution factor of the parental AB.
measured.parameter: Binding Capacity

See these solved cases before continuing.
substance	obs.value
IRWDTPC [p4395]	2 (medium binding :16-60000)
VRWDVYPC [p4396]	1 (weak binding :<16000)
IRWDTSLC [p4728]	3 (strong binding :>60000)

Ask: So what Binding Capacity did IRWDGGC [p4793] get with monoclonal antibody MV-003?
Reply: 2 (medium binding :16-60000)

Ask: For IRYDAPLC [p4397] then?
Reply: 1 (weak binding :<16000)

Ask: Now the same for IRWDQPC [p4756]
Reply: 3 (strong binding :>60000)

Ask: # repeat for IRWDGC [p4792]
Reply: 1 (weak binding :<16000)

Ask: Please answer likewise for IRYDMAGC [p4399]
Reply: 1 (weak binding :<16000)
